Entries and their pIC50
Test system: Kuramochi cells
Test: Cell proliferation inhibition experiment using Kuramochi cells
Type: cell-based
Settings: 144 h, cultured for 6 days, CellTiter-Glo
Procedure: Kuramochi cells (derived from ovarian cancer) were obtained from JCRB (Japanese Collection of Research Bioresources) cell bank. Kuramochi cells were cultured in RPMI-1640 medium containing 10% fetal bovine serum and 1% penicillin/streptomycin under conditions of 37° C. and 5% CO2. 500 cells per well were seeded in a 384-well plate. […] After the culture was completed, the cell viability was measured using CellTiter-Glo Luminescent Cell Viability Assay (Promega, G7570).
Please note pIC50 is a logarithmic value: minus log10 of concentration in mol/L. Answer with that number alone.

MOLECULE	TEST SYSTEM	pIC50
CN1CC(N(Cc2ccc(F)cn2)C(=O)CN2C(=O)N[C@]3(C[C@@H](F)c4cc(-c5cnn(C)c5)ccc43)C2=O)(C(F)(F)F)C1 [Example 20]	Kuramochi cells	6.49

May I ask what pIC50 has been recorded for CN1CC(N(Cc2ccc(F)cc2)C(=O)CN2C(=O)N[C@]3(C[C@@H](F)c4cc(-c5cnn(C)c5)ccc43)C2=O)(C(F)(F)F)C1 [Example 10] ?
7.18

What about CC(C)n1cc(-c2ccc3c(c2)[C@H](F)C[C@]32NC(=O)N(CC(=O)N(Cc3ccc(F)cn3)C3(C(F)(F)F)CN(C)C3)C2=O)cn1 [Example 33] ?
7.62

How about this molecule: O=C1N[C@]2(C[C@@H](F)c3cc(-c4cnn(C5CN(C6COC6)C5)c4)ccc32)C(=O)N1CC(=O)N(Cc1ccc(F)cc1)C1(C(F)(F)F)COC1 [Example 3]
7.04

Next entry: CN1CC(N(Cc2ccc(F)cn2)C(=O)CN2C(=O)N[C@]3(C[C@@H](F)c4cc(-c5cnn(C6COC6)c5)ccc43)C2=O)(C(F)(F)F)C1 [Example 24]
6.40

meta.source: patent US20250257055A1
